- target.of.assay: Prothrombin (Homo sapiens, UniProt P00734)
measure: IC50 (µM)
Record the value in µM, omitting the unit from your answer.

Prompt: Recorded IC50 for NCCCC[C@H](NC(=O)CNC(=O)CCc1ccccc1)B(O)O , please?
Completion: 90

###

Observed Ki for Serine protease 1 (Homo sapiens, UniProt P07477), reported per entry below.
Record the value in nM, omitting the unit from your answer.

In [3]: df
Out[3]:
                           structure_smiles  measure  result_value
0  CC(C)N(CC(=O)N[C@@H](CCCCN)B(O)O)C(=O)CCc1ccccc1       Ki           3.8
1  CN(CC(=O)N[C@@H](CCCN=C(N)N)B(O)O)C(=O)CCc1ccccc1       Ki          0.61

Now for a further molecule.
Prompt: What is its Ki for Serine protease 1 (Homo sapiens, UniProt P07477)? Entry: NCCCC[C@H](NC(=O)CN(C(=O)CCc1ccccc1)C1CCCCC1)B(O)O
Completion: 8.4

###

Observed Ki for Tissue-type plasminogen activator (Homo sapiens, UniProt P00750), reported per entry below.
Record the value in nM, omitting the unit from your answer.

Here's what some known entries look like.
>>> df
                           structure_smiles  result_value
0  NCCCC[C@H](NC(=O)CN(C(=O)CCc1ccccc1)C1CC1)B(O)O           750
1  NCCCC[C@H](NC(=O)CN(CCc1ccccc1)C(=O)CCc1ccccc1)B(O)O           680

Prompt: Recorded Ki for NCCCC[C@H](NC(=O)CN(C(=O)CCc1ccccc1)c1ccccc1)B(O)O , please?
Completion: 280

###

Ki reference
- target.of.assay: Prothrombin (Homo sapiens)
- assay.notes: In vitro for inhibition of thrombin.
Record the value in nM, omitting the unit from your answer.

Here's what some known entries look like.
>>> df
                           structure_smiles  measure  result_value
0  NCCCC[C@H](NC(=O)CN(C(=O)CCc1ccccc1)C1CC1)B(O)O       Ki          0.69
1  CN(CC(=O)N[C@@H](CCCCN)B(O)O)C(=O)CCc1ccccc1       Ki          1.71
2  NCCCC[C@H](NC(=O)CN(Cc1ccccc1)C(=O)CCc1ccccc1)B(O)O       Ki          4.68

Prompt: Recorded Ki for NCCCC[C@H](NC(=O)CN(C(=O)CCc1ccccc1)c1ccccc1)B(O)O , please?
Completion: 1.4

Prompt: Same thing, different compound: CN(CC(=O)N[C@@H](CCC/N=C\N)B(O)O)C(=O)CCc1ccccc1
Completion: 9.1

Prompt: Same thing, different compound: NCCCC[C@H](NC(=O)CN(CCc1ccccc1)C(=O)CCc1ccccc1)B(O)O
Completion: 0.42

###

Observed Ki for Plasminogen (Homo sapiens), reported per entry below.
Record the value in µM, omitting the unit from your answer.

                           structure_smiles  result_value
0  CC(C)N(CC(=O)N[C@@H](CCCCN)B(O)O)C(=O)CCc1ccccc1          0.14
1  CN(CC(=O)N[C@@H](CCCN=C(N)N)B(O)O)C(=O)CCc1ccccc1          0.46
2  CC(=O)N[C@H](Cc1ccccc1)C(=O)N1CCC[C@H]1C(=O)N[C@@H](CCCN=C(N)N)B(O)O        0.0051

Now for a further compound.
Prompt: What is its Ki for Plasminogen (Homo sapiens)? Entry: NCCCC[C@H](NC(=O)CN(C(=O)CCc1ccccc1)C1CCCCC1)B(O)O
Completion: 0.25
